Data provenance is patent US20130095505A1.

System: anti-Chlamydia abzymes
Format: biochemical, human
testParameters: pH 5.6
measurementKind: Inhibition of abzymes ability to cause: Serum lipid peroxidation, in MDA assay

| molecule | observedValue |
| --- | --- |
| Cc1c(O)cc2c(c1C)O[C@](C)(CCC[C@H](C)CCC[C@H](C)CCCC(C)C)CC2 [(+) y-Tocopherol] | Negative |
| CC1=C(/C=C/C(C)=C/C=C/C(C)=C/C=C/C=C(C)/C=C/C=C(C)/C=C/C2=C(C)CCCC2(C)C)C(C)(C)CCC1 [β-Carotene] | Negative |
| O=C(O)c1ccccc1 [Benzoic acid] | Negative |
